- Assay system: PD-1/PD-L1 interaction (Homo sapiens, UniProt Q9NZQ7)
- Construct: expressed in transfected cells; host or cells: CHO cells (aAPC-PD-L1) co-cultured with Jurkat cells overexpressing PD-1 and an NFAT-luciferase reporter
- Sequence (Q9NZQ7 19-290): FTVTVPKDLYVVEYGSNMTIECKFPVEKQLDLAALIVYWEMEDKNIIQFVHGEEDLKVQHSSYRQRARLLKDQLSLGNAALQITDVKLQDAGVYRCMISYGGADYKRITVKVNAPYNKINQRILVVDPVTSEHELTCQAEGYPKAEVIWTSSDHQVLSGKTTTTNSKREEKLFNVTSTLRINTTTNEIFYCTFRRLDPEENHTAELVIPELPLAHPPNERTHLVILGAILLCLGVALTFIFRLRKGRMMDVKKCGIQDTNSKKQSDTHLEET
- Experiment notes: PD-1/PD-L1 NFAT reporter co-culture assay
- Assay type: cell-based
- Assay setup: Jurkat PD-1 NFAT-luciferase cells co-cultured with aAPC-PD-L1 CHO cells, 6 hrs at 37° C.; read-out: EC50 NFAT Luciferase
Reported property: pEC50
Numbers only, as −log10 of the molar value.

Compound	pEC50
N#Cc1cncc(COc2nc(O[C@H]3CCc4c(-c5cccc(-c6ccc(OCCNCCO)cc6)c5Cl)cccc43)c(Br)cc2CNC[C@@H](O)CC(=O)O)c1	7.08
Cc1c(COc2cc(OCc3cncc(C#N)c3)c(CN[C@@](C)(CO)C(=O)O)cc2Cl)cccc1-c1cccc(-c2nnc(CCN3CC[C@@H](O)C3)o2)c1C	6.05
CNCc1cccc(-c2cccc(-c3cccc(COc4cc(OCc5cncc(C#N)c5)c(CN[C@@](C)(CO)C(=O)O)cc4Cl)c3C)c2C)c1	5.68
COc1nc(OCc2cccc(-c3cccc(COc4nc(OC)c(CNC[C@@H](O)CC(=O)O)cc4Cl)c3C)c2C)c(Cl)cc1CNC[C@@H](O)CC(=O)O	6.61
COc1nc(-c2cccc(-c3cccc(-c4ccc5c(CNC[C@@H]6CCC(=O)N6)cccc5c4)c3Cl)c2Cl)ccc1CNC[C@@H]1CCC(=O)N1	6.26
Cc1c(COc2cc(OCc3cncc(C#N)c3)c(CNC[C@H](O)CC(=O)O)cc2Cl)cccc1-c1cccc(COc2cc(OCc3cncc(C#N)c3)c(CNC[C@H](O)CC(=O)O)cc2Cl)c1C	6.80
Cc1c(COc2nc(OCc3cc(C#N)cc(C#N)c3)c(CN[C@@](C)(CO)C(=O)O)cc2Cl)cccc1-c1cccc(COc2nc(OCc3cc(C#N)cc(C#N)c3)c(CN[C@@](C)(CO)C(=O)O)cc2Cl)c1C	7.12
COc1nc(O[C@H]2CCc3c(-c4cccc5c4CC[C@@H]5Oc4nc(OC)c(CNC[C@@H](O)CC(=O)O)cc4Br)cccc32)c(Br)cc1CNCCO	6.54
COc1nc(OCc2cccc(-c3cccc(COc4nc(OC)c(CNC(C)C(=O)N(C)C)cc4Cl)c3C)c2C)c(Cl)cc1CNC(C)C(=O)N(C)C (centres unmarked)	5.77

Noted for "COc1nc(O[C@H]2CCc3c(-c4cccc(-c5ccc6c(c5)C[C@@H](N)C6)c4Cl)cccc32)ccc1CNC[C@@H]1CCC(=O)N1" : its pEC50 reads 5.74
